- Target desc: BCRP (Homo sapiens (Human), UniProt Q9UNQ0)
- Sequence (Q9UNQ0 whole entry, species assumed): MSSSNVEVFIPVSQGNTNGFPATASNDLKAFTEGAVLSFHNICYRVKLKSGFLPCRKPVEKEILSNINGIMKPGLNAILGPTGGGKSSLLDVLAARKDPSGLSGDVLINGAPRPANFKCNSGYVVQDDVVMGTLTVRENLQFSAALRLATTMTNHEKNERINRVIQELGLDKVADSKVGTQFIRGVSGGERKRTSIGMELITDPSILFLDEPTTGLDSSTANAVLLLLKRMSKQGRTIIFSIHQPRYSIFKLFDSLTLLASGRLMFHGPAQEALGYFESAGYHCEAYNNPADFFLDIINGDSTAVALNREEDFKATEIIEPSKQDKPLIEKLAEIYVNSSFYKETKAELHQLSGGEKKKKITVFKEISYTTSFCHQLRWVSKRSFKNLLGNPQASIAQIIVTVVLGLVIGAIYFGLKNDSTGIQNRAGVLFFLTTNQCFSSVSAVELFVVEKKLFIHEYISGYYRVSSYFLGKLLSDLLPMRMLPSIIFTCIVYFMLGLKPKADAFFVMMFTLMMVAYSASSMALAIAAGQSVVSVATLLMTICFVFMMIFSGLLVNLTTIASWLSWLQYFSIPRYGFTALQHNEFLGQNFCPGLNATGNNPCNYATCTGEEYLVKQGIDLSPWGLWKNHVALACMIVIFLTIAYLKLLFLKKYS
- Protocol details: BCRP efflux ratio in BCRP transfected MDCKII cells
- Settings: dog
Outcome measure: efflux ratio at 2 h, 1 μM

| Compound | Target desc | Outcome measure | Reported value |
| --- | --- | --- | --- |
| CCCS(=O)(=O)Nc1ccc(F)c(Oc2ccc3ncn(C)c(=O)c3c2C)c1Cl [Example 55] | BCRP (Homo sapiens (Human), UniProt Q9UNQ0) | efflux ratio at 2 h, 1 μM | 0.83 |

As a next step, examine the compound that follows.
Look up efflux ratio at 2 h, 1 μM: CCCS(=O)(=O)Nc1ncc(F)c(Oc2ccc3ncn(C)c(=O)c3c2C)c1Cl [Example 63]
7.7

* * *

- Target desc: P-gp (MDR1) (Homo sapiens (Human), UniProt P08183)
- Sequence (P08183 whole entry, species assumed): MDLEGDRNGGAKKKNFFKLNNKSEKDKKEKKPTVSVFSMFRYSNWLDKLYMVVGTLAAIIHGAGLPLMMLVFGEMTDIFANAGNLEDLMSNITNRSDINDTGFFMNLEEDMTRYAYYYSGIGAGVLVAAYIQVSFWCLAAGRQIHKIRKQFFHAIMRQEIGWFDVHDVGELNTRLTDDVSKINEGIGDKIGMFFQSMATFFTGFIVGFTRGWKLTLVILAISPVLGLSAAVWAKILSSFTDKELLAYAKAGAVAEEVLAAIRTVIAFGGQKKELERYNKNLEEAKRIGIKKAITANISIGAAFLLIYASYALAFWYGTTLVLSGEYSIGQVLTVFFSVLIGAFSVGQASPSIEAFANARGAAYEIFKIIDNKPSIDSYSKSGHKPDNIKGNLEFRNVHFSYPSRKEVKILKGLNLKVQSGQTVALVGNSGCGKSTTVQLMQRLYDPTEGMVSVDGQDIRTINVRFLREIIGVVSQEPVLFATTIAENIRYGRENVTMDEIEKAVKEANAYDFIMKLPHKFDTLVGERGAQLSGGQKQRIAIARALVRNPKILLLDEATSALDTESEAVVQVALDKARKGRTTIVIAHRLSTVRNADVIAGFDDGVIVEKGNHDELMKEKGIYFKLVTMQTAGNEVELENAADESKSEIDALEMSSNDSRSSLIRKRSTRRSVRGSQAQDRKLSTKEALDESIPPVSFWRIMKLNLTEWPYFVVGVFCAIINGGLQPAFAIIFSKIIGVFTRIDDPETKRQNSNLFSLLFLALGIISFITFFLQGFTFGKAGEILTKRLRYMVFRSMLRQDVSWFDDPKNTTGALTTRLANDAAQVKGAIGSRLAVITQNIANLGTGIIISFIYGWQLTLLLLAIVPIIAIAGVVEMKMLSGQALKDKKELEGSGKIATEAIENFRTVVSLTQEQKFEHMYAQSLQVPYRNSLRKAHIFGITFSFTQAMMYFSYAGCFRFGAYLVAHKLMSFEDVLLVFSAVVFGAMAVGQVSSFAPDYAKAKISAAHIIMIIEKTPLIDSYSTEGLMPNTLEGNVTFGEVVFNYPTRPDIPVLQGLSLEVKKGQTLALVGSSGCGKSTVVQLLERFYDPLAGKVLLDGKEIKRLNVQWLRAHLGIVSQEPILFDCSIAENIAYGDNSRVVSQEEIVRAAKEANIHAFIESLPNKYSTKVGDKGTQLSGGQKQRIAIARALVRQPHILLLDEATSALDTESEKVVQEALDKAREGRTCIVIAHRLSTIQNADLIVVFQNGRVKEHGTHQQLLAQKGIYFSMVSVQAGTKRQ
- Protocol details: MDR1 efflux ratio in MDR1 transfected LLC-PK1 cells
- Settings: pig, LLC-PK1
Outcome measure: efflux ratio at 2 h, 1 μM

Would you mind telling me what efflux ratio at 2 h, 1 μM value was observed for CCCS(=O)(=O)Nc1ccc(F)c(Oc2ccc3ncn(C)c(=O)c3c2C)c1Cl ?
1.1

Give the measured efflux ratio at 2 h, 1 μM of CCCS(=O)(=O)Nc1ncc(F)c(Oc2ccc3ncn(C)c(=O)c3c2C)c1Cl .
1.3

* * *

- Protocol details: PK (free brain-to-free plasma ratio) (mouse)
- Format: in vivo
- Settings: male CD-1 mice, oral gavage 10 mg/kg, (B/P)*(Bfu/Pfu)
Listed compounds paired with reported Kp,uu (unbound brain-to-unbound plasma ratio)

Return reported Kp,uu (unbound brain-to-unbound plasma ratio); argument: CCCS(=O)(=O)Nc1ncc(F)c(Oc2ccc3ncn(C)c(=O)c3c2C)c1Cl [Example 63]
0.34 to 0.4

May I ask what Kp,uu (unbound brain-to-unbound plasma ratio) has been recorded for CCCS(=O)(=O)Nc1ccc(F)c(Oc2ccc3ncn(C)c(=O)c3c2C)c1Cl [Example 55] ?
0.46 to 0.51
